System: NCI-H211 complex spheroid viability
TEST_PROTOCOL: Anticancer human tumor NCI-H211 cell line growth inhibition [LSD1]; active = viability on the fitted dose curve at most 10% of control; inactive = the rest
COND: second compound 3.16 µM; first compound 0.03 µM
From the text: Multicellular complex tumor spheroid response to LSD1 Inhibitor Iadademstat in combination with a variety of drugs and investigational agents in selected tumor cell lines The current study was undertaken to assess response to LSD1 inhibitors in combination with standard-of-care drugs and investigational agents in solid tumor complex spheroid models as well as in the K-562 leukemia. […] Compounds. […] If the clinical Cmax for an agent had not been determined, the highest concentration tested was 10 microM. […]
Outcome (select one): active, inactive

Example entries and their recorded answers appear below.
NS(=O)(=O)OCC1CC(n2ccc3c(NC4CCc5ccccc54)ncnc32)CC1O (configuration not stated) + NC1CC1c1ccc(-c2cccc(O)c2)cc1 | inactive
CCc1c2c(nc3ccc(O)cc13)-c1cc3c(c(=O)n1C2)COC(=O)[C@]3(O)CC + NC1CC1c1ccc(-c2cccc(O)c2)cc1 | active
Nc1ncn(C2CC(O)C(CO)S2)c(=O)n1 (configuration not stated) + NC1CCC(NC2CC2c2ccccc2)CC1 | active
COc1cc(C2c3cc4c(cc3C(OC3OC5COC(C)OC5C(O)C3O)C3COC(=O)C23)OCO4)cc(OC)c1O (configuration not stated) + NC1CC1c1ccc(-c2cccc(O)c2)cc1 | active
Nc1ccccc1NC(=O)c1ccc(CNC(=O)OCc2cccnc2)cc1 + NC1CC1c1ccc(-c2cccc(O)c2)cc1 | inactive

### Prompt Hey, what did the test say about O=C(C=Cc1cccc(S(=O)(=O)Nc2ccccc2)c1)NO + NC1CCC(NC2CC2c2ccccc2)CC1 ?
### Response active

### Prompt Kindly provide the recorded test outcome for the following compound: Nc1ncn(C2CC(O)C(CO)S2)c(=O)n1 (configuration not stated) + NC1CC1c1ccc(-c2cccc(O)c2)cc1
### Response active

###

Test system: NCI-H211 complex spheroid viability
TEST_PROTOCOL: Anticancer human tumor NCI-H211 cell line growth inhibition [LSD1]; active = viability on the fitted dose curve at most 10% of control; inactive = the rest;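 also: luminescent viability read after seven days of drug exposure; 100% = DMSO vehicle control viability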
COND: second compound 0.316 µM; first compound 0.949 µM
Description: Multicellular complex tumor spheroid response to LSD1 Inhibitor Iadademstat in combination with a variety of drugs and investigational agents in selected tumor cell lines The current study was undertaken to assess response to LSD1 inhibitors in combination with standard-of-care drugs and investigational agents in solid tumor complex spheroid models as well as in the K-562 leukemia. […] Compounds. […] If the clinical Cmax for an agent had not been determined, the highest concentration tested was 10 microM. […]
Form entry, call: pick from T = active, F = inactive

These solved cases illustrate the format of a correct answer.
NS(=O)(=O)OCC1CC(n2ccc3c(NC4CCc5ccccc54)ncnc32)CC1O (stereo not given) + NC1CC1c1ccc(-c2cccc(O)c2)cc1 | T
COc1cc(C2c3cc4c(cc3C(OC3OC5COC(C)OC5C(O)C3O)C3COC(=O)C23)OCO4)cc(OC)c1O (stereo not given) + NC1CCC(NC2CC2c2ccccc2)CC1 | T
O=C(C=Cc1cccc(S(=O)(=O)Nc2ccccc2)c1)NO + NC1CC1c1ccc(-c2cccc(O)c2)cc1 | T
CCN(c1cc(-c2ccc(CN3CCOCC3)cc2)cc(C(=O)NCc2c(C)cc(C)[nH]c2=O)c1C)C1CCOCC1 + NC1CCC(NC2CC2c2ccccc2)CC1 | F
CCN(c1cc(-c2ccc(CN3CCOCC3)cc2)cc(C(=O)NCc2c(C)cc(C)[nH]c2=O)c1C)C1CCOCC1 + NC1CC1c1ccc(-c2cccc(O)c2)cc1 | F
Nc1ccccc1NC(=O)c1ccc(CNC(=O)OCc2cccnc2)cc1 + NC1CCC(NC2CC2c2ccccc2)CC1 | T
NS(=O)(=O)OCC1CC(n2ccc3c(NC4CCc5ccccc54)ncnc32)CC1O (stereo not given) + NC1CCC(NC2CC2c2ccccc2)CC1 | T
Nc1ccccc1NC(=O)c1ccc(CNC(=O)OCc2cccnc2)cc1 + NC1CC1c1ccc(-c2cccc(O)c2)cc1 | T
COc1cc(C2c3cc4c(cc3C(OC3OC5COC(C)OC5C(O)C3O)C3COC(=O)C23)OCO4)cc(OC)c1O (stereo not given) + NC1CC1c1ccc(-c2cccc(O)c2)cc1 | T

### Prompt How was O=C(C=Cc1cccc(S(=O)(=O)Nc2ccccc2)c1)NO + NC1CCC(NC2CC2c2ccccc2)CC1 classified in this test?
### Response T

###

Tested on: NCI-H211 complex spheroid viability
TEST_PROTOCOL: Anticancer human tumor NCI-H211 cell line growth inhibition [LSD1];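 also: luminescent viability read after seven days of drug exposure; 100% = DMSO vehicle control viability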
COND: second compound 0.316 µM; first compound 0.000949 µM; hits give low values
ENDPOINT_LABEL: viability, T/C (%)
Form entry: value (%) — number only.

Some entries whose results are on file:
CCc1c2c(nc3ccc(O)cc13)-c1cc3c(c(=O)n1C2)COC(=O)[C@]3(O)CC + NC1CCC(NC2CC2c2ccccc2)CC1 | 1.86
Nc1ncn(C2CC(O)C(CO)S2)c(=O)n1 (stereo unspecified) + NC1CCC(NC2CC2c2ccccc2)CC1 | 55.8
Nc1ccn(C2OC(CO)C(O)C2(F)F)c(=O)n1 (stereo unspecified) + NC1CC1c1ccc(-c2cccc(O)c2)cc1 | 3.95
Nc1ncn(C2CC(O)C(CO)S2)c(=O)n1 (stereo unspecified) + NC1CC1c1ccc(-c2cccc(O)c2)cc1 | 35.8
CCc1c2c(nc3ccc(O)cc13)-c1cc3c(c(=O)n1C2)COC(=O)[C@]3(O)CC + NC1CC1c1ccc(-c2cccc(O)c2)cc1 | 3.2

Now, please, on to the next molecule.
### Prompt Quickly give me recorded viability, T/C for Nc1ccn(C2OC(CO)C(O)C2(F)F)c(=O)n1 (stereo unspecified) + NC1CCC(NC2CC2c2ccccc2)CC1
### Response 2.59

###

System: NCI-H211 complex spheroid viability
TEST_PROTOCOL: Anticancer human tumor NCI-H211 cell line growth inhibition [LSD1];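 also: luminescent viability read after seven days of drug exposure; 100% = DMSO vehicle control viability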
COND: second compound 0.316 µM; first compound 0.000316 µM; hits give low values
ENDPOINT_LABEL: viability, T/C (%)
Give your result in % as a bare value.

### Prompt For Cn1ncnc1C1c2n[nH]c(=O)c3cc(F)cc(c23)NC1c1ccc(F)cc1 (stereo not drawn) + NC1CC1c1ccc(-c2cccc(O)c2)cc1 , write its viability, T/C.
### Response 79.3

### Prompt Determine its reported viability, T/C: Cn1ncnc1C1c2n[nH]c(=O)c3cc(F)cc(c23)NC1c1ccc(F)cc1 (stereo not drawn) + NC1CCC(NC2CC2c2ccccc2)CC1
### Response 67

### Prompt Entry CC(C)CC(NC(=O)CNC(=O)c1cc(Cl)ccc1Cl)B1OC(=O)CC(CC(=O)O)(C(=O)O)O1 (stereo not drawn) + NC1CCC(NC2CC2c2ccccc2)CC1 needs its viability, T/C filled in; supply it.
### Response 81.5

### Prompt Check the records and state viability, T/C for CC[C@@]1(O)C(=O)OCc2c1cc1n(c2=O)Cc2cc3c(CN(C)C)c(O)ccc3nc2-1 + NC1CC1c1ccc(-c2cccc(O)c2)cc1
### Response 60

### Prompt // Input: CC(C)CC(NC(=O)C(Cc1ccccc1)NC(=O)c1cnccn1)B(O)O (stereo not drawn) + NC1CC1c1ccc(-c2cccc(O)c2)cc1 . Output its viability, T/C only.
### Response 107

### Prompt Respond only with viability, T/C recorded for CC(C)CC(NC(=O)C(Cc1ccccc1)NC(=O)c1cnccn1)B(O)O (stereo not drawn) + NC1CCC(NC2CC2c2ccccc2)CC1
### Response 70.9

### Prompt // Input: CC(C)CC(NC(=O)CNC(=O)c1cc(Cl)ccc1Cl)B1OC(=O)CC(CC(=O)O)(C(=O)O)O1 (stereo not drawn) + NC1CC1c1ccc(-c2cccc(O)c2)cc1 . Output its viability, T/C only.
### Response 91.6

### Prompt Tell me viability, T/C reported for CC[C@@]1(O)C(=O)OCc2c1cc1n(c2=O)Cc2cc3c(CN(C)C)c(O)ccc3nc2-1 + NC1CCC(NC2CC2c2ccccc2)CC1
### Response 54.4

###

Tested on: NCI-H211 complex spheroid viability
TEST_PROTOCOL: Anticancer human tumor NCI-H211 cell line growth inhibition [LSD1]; active = viability on the fitted dose curve at most 10% of control; inactive = the rest;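 also: luminescent viability read after seven days of drug exposure; 100% = DMSO vehicle control viability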
COND: second compound 0.1 µM; first compound 0.316 µM
Respond using exactly one of the listed classes: 1 = active, -1 = inactive

CC(C)c1c(-c2ccccc2)nc2c(C#N)c[nH]n2c1=O + NC1CC1c1ccc(-c2cccc(O)c2)cc1 | -1
COc1cc(Nc2ncc3c(n2)-c2ccc(Cl)cc2C(c2c(F)cccc2OC)=NC3)ccc1C(=O)O + NC1CCC(NC2CC2c2ccccc2)CC1 | 1
Nc1ncn(C2CC(O)C(CO)O2)c(=O)n1 (centres undefined) + NC1CC1c1ccc(-c2cccc(O)c2)cc1 | 1

### Prompt What did this assay record as the result for CC1COCCN1c1cc(-c2ccnn2C)c2ccnc(-c3ccn[nH]3)c2n1 (centres undefined) + NC1CCC(NC2CC2c2ccccc2)CC1 ?
### Response 1
